- assay overview: Clearance in Sprague-Dawley rat liver microsomes assessed per mg of protein at 0.5 uM
- Format: ADME, Microsome
- test settings: read-out: CLH
Please assign F whenever microsomal CLint at 0.5 µM is at or above 60 µL/min/mg, and T whenever it is below.

>>> qualitative_label("O=c1c2c3n(c(=O)cc2[nH]n1-c1ccccc1Cl)CCCN(Cc1ccc(Cl)cc1)C3")
"F"
>>> qualitative_label("COc1ccccc1-n1[nH]c2cc(=O)n3c(c2c1=O)CN(Cc1ccccn1)CCC3.Cl")
"T"
>>> qualitative_label("Cl.O=c1c2c3n(c(=O)cc2[nH]n1-c1ccccc1Cl)CCCN(Cc1ccccn1)C3")
"T"

Problem: Report whether reported microsomal CLint at 0.5 µM is lower than 60 µL/min/mg (strictly) for `Cl.O=c1c2c3n(c(=O)cc2[nH]n1-c1ccccc1Cl)CCCN(Cc1cccnc1)C3`
Result: T

Problem: Report whether reported microsomal CLint at 0.5 µM is lower than 60 µL/min/mg (strictly) for `Cl.O=c1c2c3n(c(=O)cc2[nH]n1-c1ccccc1Cl)CCCN(Cc1ccccc1)C3`
Result: F

Problem: Report whether reported microsomal CLint at 0.5 µM is lower than 60 µL/min/mg (strictly) for `O=c1c2c3n(c(=O)cc2[nH]n1-c1ccccc1Cl)CCCN(Cc1ccccc1Cl)C3`
Result: F

Problem: Report whether reported microsomal CLint at 0.5 µM is lower than 60 µL/min/mg (strictly) for `O=c1c2c3n(c(=O)cc2[nH]n1-c1ccccc1Cl)CCCN(Cc1cccc(Cl)c1)C3`
Result: F

---

- assay overview: AUC (infinity) in Sprague-Dawley rat at 10 mg/kg, po
- Assay type: ADME, organism-based
- Parameters: dose 10 mg/kg, route oral, time infinity
- test settings: plasma
I'd be grateful if you could share measured AUC(0-inf) for these entries.
Answers are plain numbers, in ng·h/mL.

>>> test_result("Cl.O=c1c2c3n(c(=O)cc2[nH]n1-c1ccccc1Cl)CCCN(Cc1ccccc1)C3")
41400

Proceed to the following item.
Problem: Looking for the measured AUC(0-inf) of `Cl.O=c1c2c3n(c(=O)cc2[nH]n1-c1ccccc1Cl)CCCN(Cc1ccccn1)C3` , can you help?
Result: 9900

---

I'd be grateful if you could share measured bioavailability for these entries.
- assay overview: Oral bioavailability in Sprague-Dawley rat at 10 mg/kg
- Format: ADME, organism-based
- test settings: in vivo
Numbers only, in %.

>>> test_result("Cl.O=c1c2c3n(c(=O)cc2[nH]n1-c1ccccc1Cl)CCCN(Cc1ccccn1)C3")
42

Proceed to the following item.
Problem: Looking for the measured bioavailability of `Cl.O=c1c2c3n(c(=O)cc2[nH]n1-c1ccccc1Cl)CCCN(Cc1ccccc1)C3` , can you help?
Result: 53

---

I'd be grateful if you could share measured Papp at 2 h, 10 µM for these entries.
- assay overview: Apparent permeability across human Caco2 cells at 10 uM after 2 hrs
- Format: ADME, cell-based
- test settings: Caco-2
Numbers only, in ×10⁻⁶ cm/s.

Report Papp at 2 h, 10 µM for each item below.
1. COc1cccc(CN2CCCn3c(c4c(=O)n(-c5ccccc5Cl)[nH]c4cc3=O)C2)c1.Cl
2. Cl.O=c1c2c3n(c(=O)cc2[nH]n1-c1ccccc1Cl)CCCN(Cc1ccccc1)C3
3. COc1ccccc1-n1[nH]c2cc(=O)n3c(c2c1=O)CN(Cc1ccccn1)CCC3.Cl
4. Cl.O=c1c2c3n(c(=O)cc2[nH]n1-c1ccccc1Cl)CCCN(Cc1ccccn1)C3

Result:
1: 22.3; 2: 42.2; 3: 1.4; 4: 1.8

Problem: Looking for the measured Papp at 2 h, 10 µM of `Cl.O=c1c2c3n(c(=O)cc2[nH]n1-c1ccccc1Cl)CCCN(Cc1cccnc1)C3` , can you help?
Result: 1

---

- tested target: NADPH oxidase 2 (Homo sapiens, UniProt P04839)
- Sequence (P04839 whole entry): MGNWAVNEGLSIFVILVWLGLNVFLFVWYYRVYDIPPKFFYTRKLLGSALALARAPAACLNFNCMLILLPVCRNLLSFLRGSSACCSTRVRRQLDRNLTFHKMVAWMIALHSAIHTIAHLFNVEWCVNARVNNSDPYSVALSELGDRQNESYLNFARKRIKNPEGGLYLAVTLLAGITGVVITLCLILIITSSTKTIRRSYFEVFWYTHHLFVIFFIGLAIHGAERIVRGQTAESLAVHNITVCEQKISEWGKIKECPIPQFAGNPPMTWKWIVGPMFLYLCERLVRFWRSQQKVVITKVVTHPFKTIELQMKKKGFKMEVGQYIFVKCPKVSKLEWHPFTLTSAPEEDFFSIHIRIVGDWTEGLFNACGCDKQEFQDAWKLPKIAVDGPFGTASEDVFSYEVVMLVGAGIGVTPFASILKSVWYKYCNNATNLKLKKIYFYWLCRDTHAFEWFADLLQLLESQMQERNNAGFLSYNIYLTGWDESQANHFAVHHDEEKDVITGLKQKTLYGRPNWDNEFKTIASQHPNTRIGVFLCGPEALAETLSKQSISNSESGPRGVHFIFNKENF
- assay overview: Antagonist activity at human NOX2 in human polymorphonuclear cell membrane assessed as inhibition of ROS production after 20 mins by cell-free amplex red assay
- Format: functional
Please assign Criterion not met whenever Ki is at or above 1000 nM, and Criterion met whenever it is below.

Worked examples, 4 compounds total:
>>> qualitative_label("COc1ccc(CN2CCCn3c(c4c(=O)n(-c5ccccc5Cl)[nH]c4cc3=O)C2)cc1")
"Criterion met"
>>> qualitative_label("Cl.O=c1c2c3n(c(=O)cc2[nH]n1-c1ccccc1Cl)CCCN(Cc1ccccn1)C3")
"Criterion not met"
>>> qualitative_label("O=c1c2c3n(c(=O)cc2[nH]n1-c1ccccc1Cl)CCCN(Cc1ccc(Cl)cc1)C3")
"Criterion not met"
>>> qualitative_label("O=c1c2c3n(c(=O)cc2[nH]n1-c1ccccc1Cl)CCCN(Cc1cccc(Cl)c1)C3")
"Criterion not met"

Consider the record given below.
Problem: Report whether reported Ki is lower than 1000 nM (strictly) for `O=c1c2c3n(c(=O)cc2[nH]n1-c1ccccc1Cl)CCN(Cc1ccccc1)C3`
Result: Criterion not met

---

- tested target: Cytochrome P450 1A2 (Homo sapiens, UniProt P05177)
- Sequence (P05177 whole entry): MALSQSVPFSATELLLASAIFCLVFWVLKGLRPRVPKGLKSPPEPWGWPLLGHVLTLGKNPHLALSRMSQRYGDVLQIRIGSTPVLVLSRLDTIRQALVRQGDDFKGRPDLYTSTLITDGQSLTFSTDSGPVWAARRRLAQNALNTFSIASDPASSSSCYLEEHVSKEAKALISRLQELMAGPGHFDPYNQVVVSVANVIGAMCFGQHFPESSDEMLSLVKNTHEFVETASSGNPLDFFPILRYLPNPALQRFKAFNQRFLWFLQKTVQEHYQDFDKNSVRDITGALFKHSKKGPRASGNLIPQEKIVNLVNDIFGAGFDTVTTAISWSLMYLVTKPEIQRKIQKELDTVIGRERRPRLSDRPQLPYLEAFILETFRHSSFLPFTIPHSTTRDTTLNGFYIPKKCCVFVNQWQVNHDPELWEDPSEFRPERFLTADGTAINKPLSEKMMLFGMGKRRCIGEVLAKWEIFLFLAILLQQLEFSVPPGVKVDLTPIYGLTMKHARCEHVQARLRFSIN
- assay overview: Inhibition of human recombinant CYP1A2 assessed as inhibition of fluorescent metabolite formation
pIC50: −log10 of the molar value.
readout kind: pIC50

Problem: Notebook entry, Cytochrome P450 1A2 (Homo sapiens, UniProt P05177) assay: pIC50 of `Cl.O=c1c2c3n(c(=O)cc2[nH]n1-c1ccccc1Cl)CCCN(Cc1ccccc1)C3` = ?
Result: < 4.60

---

- assay overview: Efflux ratio of apparent permeability across human Caco2 cells at 10 uM after 2 hrs
- Assay type: ADME, cell-based
- test settings: Caco-2
readout kind: efflux ratio at 2 h, 10 µM

Example results:
>>> test_result("Cl.O=c1c2c3n(c(=O)cc2[nH]n1-c1ccccc1Cl)CCCN(Cc1ccccc1)C3")
0.48
>>> test_result("COc1cccc(CN2CCCn3c(c4c(=O)n(-c5ccccc5Cl)[nH]c4cc3=O)C2)c1.Cl")
1.91
>>> test_result("Cl.O=c1c2c3n(c(=O)cc2[nH]n1-c1ccccc1Cl)CCCN(Cc1ccccn1)C3")
10.1
>>> test_result("COc1ccccc1-n1[nH]c2cc(=O)n3c(c2c1=O)CN(Cc1ccccn1)CCC3.Cl")
16.8

Proceed to the following item.
Problem: Looking for the measured efflux ratio at 2 h, 10 µM of `Cl.O=c1c2c3n(c(=O)cc2[nH]n1-c1ccccc1Cl)CCCN(Cc1cccnc1)C3` , can you help?
Result: 18.7

---

- assay overview: AUC (infinity) in Sprague-Dawley rat at 5 mg/kg, iv
- Type: ADME, organism-based
- Parameters: time infinity, dose 5 mg/kg, route intravenous
- test settings: plasma
readout kind: AUC(0-inf) (ng·h/mL)
One number for each entry, in ng·h/mL.

>>> test_result("Cl.O=c1c2c3n(c(=O)cc2[nH]n1-c1ccccc1Cl)CCCN(Cc1ccccc1)C3")
39300

Proceed to the following item.
Problem: Looking for the measured AUC(0-inf) of `Cl.O=c1c2c3n(c(=O)cc2[nH]n1-c1ccccc1Cl)CCCN(Cc1ccccn1)C3` , can you help?
Result: 11800

---

I'd be grateful if you could share measured fraction unbound for these entries.
- assay overview: Fraction unbound in rat plasma containing 50% plasma protein
- Format: ADME, cell-free

Example results:
>>> test_result("COc1cccc(CN2CCCn3c(c4c(=O)n(-c5ccccc5Cl)[nH]c4cc3=O)C2)c1.Cl")
0.901
>>> test_result("Cl.O=c1c2c3n(c(=O)cc2[nH]n1-c1ccccc1Cl)CCCN(Cc1cccnc1)C3")
0.029
>>> test_result("Cl.O=c1c2c3n(c(=O)cc2[nH]n1-c1ccccc1Cl)CCCN(Cc1ccccc1)C3")
0.12

Report fraction unbound for each item below.
1. Cl.O=c1c2c3n(c(=O)cc2[nH]n1-c1ccccc1Cl)CCCN(Cc1ccccn1)C3
2. COc1ccccc1-n1[nH]c2cc(=O)n3c(c2c1=O)CN(Cc1ccccn1)CCC3.Cl

Result:
1. 0.026
2. 0.069

---

- assay overview: Volume of distribution at steady state in Sprague-Dawley rat at 5 mg/kg, iv
- Format: ADME, organism-based
- Design: dose 5 mg/kg, route intravenous
- test settings: in vivo, read-out: Vdss
readout kind: Vd
Answer with the value and then the unit.

>>> test_result("Cl.O=c1c2c3n(c(=O)cc2[nH]n1-c1ccccc1Cl)CCCN(Cc1ccccc1)C3")
"0.28 L/kg"

Proceed to the following item.
Problem: Looking for the measured Vd of `Cl.O=c1c2c3n(c(=O)cc2[nH]n1-c1ccccc1Cl)CCCN(Cc1ccccn1)C3` , can you help?
Result: 0.47 L/kg

---

I'd be grateful if you could share measured logD for these entries.
- assay overview: Lipophilicity, log D of the compound at pH 7.4
- Format: physicochemical
- test settings: buffer
Answers are plain numbers.

Example results:
>>> test_result("Cl.O=c1c2c3n(c(=O)cc2[nH]n1-c1ccccc1Cl)CCCN(Cc1ccccc1)C3")
2.23
>>> test_result("Cl.O=c1c2c3n(c(=O)cc2[nH]n1-c1ccccc1Cl)CCCN(Cc1ccccn1)C3")
1.1
>>> test_result("COc1ccccc1-n1[nH]c2cc(=O)n3c(c2c1=O)CN(Cc1ccccn1)CCC3.Cl")
0.33
>>> test_result("O=c1c2c3n(c(=O)cc2[nH]n1-c1ccccc1Cl)CCCN(Cc1ccc(Cl)cc1)C3")
2.76

Proceed to the following item.
Problem: Looking for the measured logD of `O=c1c2c3n(c(=O)cc2[nH]n1-c1ccccc1Cl)CCCN(Cc1cccc(Cl)c1)C3` , can you help?
Result: 2.76

These entries and their values trace back to ChEMBL document CHEMBL1926564.
